test: Selectivity ratio of IC50 for electric eel AChE to IC50 for equine serum BChE
In this scheme, each record receives a class according to its Ratio IC50; the ranges are lower band = under 0.3, central band = from 0.3 up to 0.6, upper band = 0.6 and over

Known results for compounds:
| Compound | Class |
| --- | --- |
| C=CC(=O)N1C/C(=C\c2ccccc2)C(=O)C2(C1)C(c1ccccc1)C(c1ccccc1)NC21C(=O)Nc2ccccc21 (racemic) | central band |
| C=CC(=O)N1C/C(=C\c2ccccc2C)C(=O)C2(C1)C(c1ccccc1C)C(c1ccccc1)NC21C(=O)Nc2ccccc21 (racemic) | central band |
| O=C(C1CC(c2ccccc2)NC12C(=O)Nc1ccccc12)N1C/C(=C\c2ccccc2Cl)C(=O)C2(C1)C(c1ccccc1Cl)C(c1ccccc1)NC21C(=O)Nc2ccccc21 (racemic) | upper band |
| C=CC(=O)N1C/C(=C\c2ccccc2Cl)C(=O)C2(C1)C(c1ccccc1Cl)C(c1ccccc1)NC21C(=O)Nc2ccccc21 (racemic) | lower band |
| Cc1ccccc1/C=C1\CN(C(=O)C2CC(c3ccccc3)NC23C(=O)Nc2ccccc23)CC2(C1=O)C(c1ccccc1C)C(c1ccccc1)NC21C(=O)Nc2ccccc21 (racemic) | upper band |

Kindly identify the class of O=C(C1CC(c2ccccc2)NC12C(=O)Nc1ccccc12)N1C/C(=C\c2ccccc2)C(=O)C2(C1)C(c1ccccc1)C(c1ccccc1)NC21C(=O)Nc2ccccc21 (racemic) . upper band

Kindly identify the class of O=C(C1CC(c2ccccc2)NC12C(=O)Nc1ccccc12)N1C/C(=C\c2ccccc2F)C(=O)C2(C1)C(c1ccccc1F)C(c1ccccc1)NC21C(=O)Nc2ccccc21 (racemic) . lower band

Kindly identify the class of O=C(C1CC(c2ccccc2)NC12C(=O)Nc1ccccc12)N1C/C(=C\c2cccc3ccccc23)C(=O)C2(C1)C(c1cccc3ccccc13)C(c1ccccc1)NC21C(=O)Nc2ccccc21 (racemic) . central band

Kindly identify the class of C=CC(=O)N1C/C(=C\c2ccccc2F)C(=O)C2(C1)C(c1ccccc1F)C(c1ccccc1)NC21C(=O)Nc2ccccc21 (racemic) . lower band

Kindly identify the class of C=CC(=O)N1C/C(=C\c2ccccc2OC)C(=O)C2(C1)C(c1ccccc1OC)C(c1ccccc1)NC21C(=O)Nc2ccccc21 (racemic) . central band

Kindly identify the class of O=C(C1CC(c2ccccc2)NC12C(=O)Nc1ccccc12)N1C/C(=C\c2ccc(Cl)cc2)C(=O)C2(C1)C(c1ccc(Cl)cc1)C(c1ccccc1)NC21C(=O)Nc2ccccc21 (racemic) . central band

Kindly identify the class of C=CC(=O)N1C/C(=C\c2cccc([N+](=O)[O-])c2)C(=O)C2(C1)C(c1cccc([N+](=O)[O-])c1)C(c1ccccc1)NC21C(=O)Nc2ccccc21 (racemic) . upper band

* * *

target: UniProt:P81908; test: Inhibition of equine serum BChE using S-butyrylthiocholine chloride as substrate preincubated for 15 mins by spectrophotometer analysis
Sequence (P81908 whole entry): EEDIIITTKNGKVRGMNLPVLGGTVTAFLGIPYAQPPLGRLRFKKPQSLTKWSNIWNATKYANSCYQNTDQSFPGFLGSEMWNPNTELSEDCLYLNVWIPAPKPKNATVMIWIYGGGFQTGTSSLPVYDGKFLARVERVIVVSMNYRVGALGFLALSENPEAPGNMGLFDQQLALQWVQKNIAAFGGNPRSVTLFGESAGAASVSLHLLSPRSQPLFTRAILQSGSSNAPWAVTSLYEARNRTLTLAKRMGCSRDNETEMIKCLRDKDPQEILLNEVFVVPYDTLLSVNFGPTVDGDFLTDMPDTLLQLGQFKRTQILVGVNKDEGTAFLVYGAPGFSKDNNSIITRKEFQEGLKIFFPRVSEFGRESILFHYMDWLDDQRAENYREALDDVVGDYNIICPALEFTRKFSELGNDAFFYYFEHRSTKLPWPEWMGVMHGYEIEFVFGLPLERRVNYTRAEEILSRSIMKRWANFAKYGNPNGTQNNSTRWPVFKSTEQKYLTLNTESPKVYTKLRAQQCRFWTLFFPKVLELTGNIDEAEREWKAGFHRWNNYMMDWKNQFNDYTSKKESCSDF
Reported endpoint: pIC50
Entry type: numeric. Quantity: pIC50, the -log10 of concentration in molar units.

| Compound | Target of assay | pIC50 |
| --- | --- | --- |
| C=CC(=O)N1C/C(=C\c2ccccc2F)C(=O)C2(C1)C(c1ccccc1F)C(c1ccccc1)NC21C(=O)Nc2ccccc21 (racemic) | UniProt:P81908 | 4.93 |

Lookup: pIC50 / UniProt:P81908 / Cc1ccccc1/C=C1\CN(C(=O)C2CC(c3ccccc3)NC23C(=O)Nc2ccccc23)CC2(C1=O)C(c1ccccc1C)C(c1ccccc1)NC21C(=O)Nc2ccccc21 (racemic) 4.54

Lookup: pIC50 / UniProt:P81908 / C=CC(=O)N1C/C(=C\c2ccccc2)C(=O)C2(C1)C(c1ccccc1)C(c1ccccc1)NC21C(=O)Nc2ccccc21 (racemic) 4.91

Cited source: ChEMBL document CHEMBL3232846
